Target: ASIC current (Mus musculus)
Sequence (Q6NXK8 whole entry): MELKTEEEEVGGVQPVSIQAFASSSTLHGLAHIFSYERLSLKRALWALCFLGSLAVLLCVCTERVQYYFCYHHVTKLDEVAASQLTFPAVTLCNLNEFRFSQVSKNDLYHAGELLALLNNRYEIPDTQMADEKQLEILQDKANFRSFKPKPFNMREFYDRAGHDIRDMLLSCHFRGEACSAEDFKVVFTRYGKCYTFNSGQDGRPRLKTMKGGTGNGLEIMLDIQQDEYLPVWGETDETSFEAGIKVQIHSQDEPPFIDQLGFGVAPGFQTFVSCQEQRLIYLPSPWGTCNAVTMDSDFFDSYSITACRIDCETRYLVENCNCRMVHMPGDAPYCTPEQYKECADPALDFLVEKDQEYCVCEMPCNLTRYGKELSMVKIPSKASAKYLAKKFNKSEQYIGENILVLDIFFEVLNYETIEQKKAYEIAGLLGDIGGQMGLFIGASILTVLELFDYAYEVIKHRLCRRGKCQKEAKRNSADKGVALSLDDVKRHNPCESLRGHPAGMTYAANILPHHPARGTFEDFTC
Assay procedure: Acid-induced (pH 6.0) ASIC current in mouse cortical neurons, patch-clamp recording
Particulars: read-out: IC50 (concentration at 50% inhibition) of ASIC current amplitude; pH drop 7.4 to 6.0, holding potential −60 mV
pIC50: −log10 of the molar value.
Value kind: pIC50

Query: ASIC current (Mus musculus) / pIC50 / CCN(c1nc(N)c(C(=O)N=C(N)N)nc1Cl)C(C)C [EIPA, 5-(N-ethyl-N-isopropyl)-amiloride] : value?
Reply: ~4.70
